tested on: Human ovarian cancer cell SKOV-3; test: Cell proliferative activity (MTT / cck-8); assay type: cell-based; settings: SK-OV-3, incubated for 96 hours, read-out: Half-Inhibitory Concentration IC50 Human ovarian cancer cell SKOV-3
pIC50: −log10 of the molar value.
EXPERIMENTAL ENDPOINT: pIC50

[[record]]
chemical_string = "CN(c1ccc(Oc2ccc(C(=O)NO)cn2)cc1)c1ncnc2ccccc12"
measured_value = "6.00 to 7.00"

[[record]]
chemical_string = "COc1ccc(N(C)c2nc(C)nc3ccccc23)cc1OCCCCCC(=O)NO"
measured_value = "6.00 to 7.00"

[[record]]
chemical_string = "Cc1nc(N(C)c2ccc(Oc3ccc(C(=O)NO)cn3)cc2)c2ccccc2n1"
measured_value = "6.00 to 7.00"

[[record]]
chemical_string = "Cc1nc(Nc2ccc(OCCC(=O)NO)cc2)c2ccccc2n1"
measured_value = "< 6.00"

[[record]]
chemical_string = "Cc1nc(N(C)c2ccc(OCC(=O)NO)cc2)c2ccccc2n1"
measured_value = "6.00 to 7.00"


* * *

target: HDAC2 (Homo sapiens, UniProt Q92769)
Sequence (Q92769 whole entry): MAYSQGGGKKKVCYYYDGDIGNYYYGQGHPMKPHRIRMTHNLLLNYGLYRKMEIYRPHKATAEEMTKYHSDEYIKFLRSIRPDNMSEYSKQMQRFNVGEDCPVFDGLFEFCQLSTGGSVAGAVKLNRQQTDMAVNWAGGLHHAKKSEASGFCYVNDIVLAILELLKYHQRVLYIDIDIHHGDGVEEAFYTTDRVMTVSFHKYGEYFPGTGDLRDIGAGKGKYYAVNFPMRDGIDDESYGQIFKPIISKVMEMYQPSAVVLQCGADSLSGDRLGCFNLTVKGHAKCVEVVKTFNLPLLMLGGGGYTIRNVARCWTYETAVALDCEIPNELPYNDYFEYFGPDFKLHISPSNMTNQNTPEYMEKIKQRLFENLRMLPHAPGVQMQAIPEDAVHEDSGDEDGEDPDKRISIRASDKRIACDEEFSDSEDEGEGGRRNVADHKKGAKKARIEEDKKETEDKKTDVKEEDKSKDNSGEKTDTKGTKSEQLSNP
EXPERIMENTAL ENDPOINT: IC50 (nM)

[[record]]
chemical_string = "COc1ccc(N(C)c2nc(C)nc3ccccc23)cc1OCCCC(=O)NO"
experimental_endpoint = "IC50"
measured_value = 386


* * *

Readings of IC50 for the listed molecules
tested on: Human ovarian cancer cell SKOV-3; experiment: Cell proliferative activity (MTT / cck-8); assay type: cell-based; conditions: SK-OV-3, incubated for 96 hours, read-out: Half-Inhibitory Concentration IC50 Human ovarian cancer cell SKOV-3
EXPERIMENTAL ENDPOINT: IC50

[[record]]
molecule = "COc1ccc(N(C)c2nc(C)nc3ccccc23)cc1OCC(=O)NO [III-1]"
target_system = "Human ovarian cancer cell SKOV-3"
experimental_endpoint = "IC50"
measured_value = "< 10 nM"

[[record]]
molecule = "Cc1nc(N(C)c2ccc(OCCCCCC(=O)NO)cc2)c2ccccc2n1 [II-4]"
target_system = "Human ovarian cancer cell SKOV-3"
experimental_endpoint = "IC50"
measured_value = "100 to 1000 nM"

[[record]]
molecule = "CN(c1ccc(OCCCCC(=O)NO)cc1)c1ncnc2ccccc12 [II-14]"
target_system = "Human ovarian cancer cell SKOV-3"
experimental_endpoint = "IC50"
measured_value = "> 1000 nM"

[[record]]
molecule = "Cc1nc(N(C)c2cccc(OCCCC(=O)NO)c2)c2ccccc2n1 [III-13]"
target_system = "Human ovarian cancer cell SKOV-3"
experimental_endpoint = "IC50"
measured_value = "10 to 100 nM"

[[record]]
molecule = "Cc1nc(N(C)c2ccc(Oc3ccc(C(=O)NO)cc3)cc2)c2ccccc2n1 [II-6]"
target_system = "Human ovarian cancer cell SKOV-3"
experimental_endpoint = "IC50"
measured_value = "100 to 1000 nM"

[[record]]
molecule = "Cc1nc(N(C)c2ccc(OCCCC(=O)NO)cc2)c2ccccc2n1 [II-2]"
target_system = "Human ovarian cancer cell SKOV-3"
experimental_endpoint = "IC50"
measured_value = "10 to 100 nM"

[[record]]
molecule = "CN(c1ccc(OCCCC(=O)NO)cc1)c1ncnc2ccccc12 [II-13]"
target_system = "Human ovarian cancer cell SKOV-3"
experimental_endpoint = "IC50"
measured_value = "100 to 1000 nM"

[[record]]
molecule = "Cc1nc(N(C)c2cccc(OCCCCC(=O)NO)c2)c2ccccc2n1 [III-14]"
target_system = "Human ovarian cancer cell SKOV-3"
experimental_endpoint = "IC50"
measured_value = "10 to 100 nM"

[[record]]
molecule = "Cc1nc(N(C)c2cccc(OCCCCCC(=O)NO)c2)c2ccccc2n1 [III-15]"
target_system = "Human ovarian cancer cell SKOV-3"
experimental_endpoint = "IC50"
measured_value = "100 to 1000 nM"

[[record]]
molecule = "CCCN(c1ccc(OC)c(OCCCC(=O)NO)c1)c1nc(C)nc2ccccc12 [IV-2]"
target_system = "Human ovarian cancer cell SKOV-3"
experimental_endpoint = "IC50"
measured_value = "100 to 1000 nM"

